target: MreB (EcMreB) (Escherichia coli, UniProt P0A9X4); construct: N-terminal 8× His-tagged E. coli MreB (mreB from ATCC 25922), wild-type; assay: malachite green ATPase assay with purified EcMreB; Eadie–Hofstee kinetics; type: biochemical
Sequence (P0A9X4 whole entry): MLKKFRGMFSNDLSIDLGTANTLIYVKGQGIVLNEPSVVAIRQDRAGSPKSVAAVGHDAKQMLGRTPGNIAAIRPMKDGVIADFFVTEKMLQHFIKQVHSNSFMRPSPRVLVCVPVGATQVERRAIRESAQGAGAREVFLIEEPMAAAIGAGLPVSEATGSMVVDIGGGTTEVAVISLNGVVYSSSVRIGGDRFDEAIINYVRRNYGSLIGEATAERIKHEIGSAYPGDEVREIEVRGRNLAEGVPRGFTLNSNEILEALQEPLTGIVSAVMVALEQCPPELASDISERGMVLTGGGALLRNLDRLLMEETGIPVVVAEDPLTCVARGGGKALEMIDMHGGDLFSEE
MEASUREMENT_LABEL: pIC50
The value called pIC50 is obtained by taking minus log10 of the concentration in mol/L.

# lookup: pIC50 of N=C(N)SCc1ccc(Cl)c(Cl)c1
3.35
